Reported melting point by item:

Some solved entries appear below for comparison.
Compound	melting point
CCCCCCCCOc1cc2cc(C(=O)OC)c(C(=O)OC)c(-c3ccnc(Cl)c3)c2cc1OC	93 to 97 °C
CS(=O)(=O)c1ccc(-c2cnn(Cc3cc4ccccc4s3)c(=O)c2-c2ccc(F)cc2)cc1	93 to 96 °C
CS(=O)(=O)NC(=O)Nc1ccc(Cl)cc1	225 to 235 °C
C#CC(OC(c1ccccc1)(c1ccccc1)c1ccccc1)C(C)(C)CCCC (stereo not given)	75 to 77 °C
CCCCc1ncc(/C=C(\Cc2cccs2)C(=O)O)n1CCc1ccc(CC(=O)O)cc1	169 to 171 °C

Exam item: Identify melting point associated with the compound `c1ccc(NCCN2CCN(c3cccc4[nH]ccc34)CC2)nc1`
Marked response: 153 to 160 °C

Exam item: Identify melting point associated with the compound `CC(C)(C)c1coc2c(-c3ccc(F)cc3)c(-c3ccc(S(C)(=O)=O)cc3)nn12`
Marked response: 181 to 182 °C

Exam item: Identify melting point associated with the compound `CCOC(=O)c1cc2cc(N)ccc2[nH]1`
Marked response: 124 to 125 °C

Exam item: Identify melting point associated with the compound `CC(=O)Nc1ccc(COc2cccc(C(N)=O)c2)cc1`
Marked response: 198 to 199 °C

Exam item: Identify melting point associated with the compound `CN(C)C(=O)N[C@H]1CC[C@H](CCN2CCN(c3cccc4c3CCC4)CC2)CC1`
Marked response: 150 to 152 °C

---

Reported melting point by item:

CCn1ncc2c(Cl)c3cc(SC)ccc3nc21 120 to 121 °C
CC(C)Cn1c(SCc2ccccn2)nc2ccccc2c1=O 91.7 to 93.2 °C
COC(=O)c1ccc2c(nc(C)n2Cc2ccccc2)c1C(=O)OC 192 to 195 °C
Cc1csc(-c2cc(C)cn2-c2ccc(S(N)(=O)=O)cc2)c1 172 to 173 °C

Exam item: Identify melting point associated with the compound `COc1cc2c(cc1OC)CC(=O)N(CCC=O)C=C2`
Marked response: 95 to 96 °C

Exam item: Identify melting point associated with the compound `COc1cc(-c2c(Cl)c(CN3CCCC3=O)nc3sc4c(c23)CCN(Cc2ccccc2)C4)ccc1O`
Marked response: 190 to 191 °C

Exam item: Identify melting point associated with the compound `COc1c(Cl)ccc(-c2cc(N)c(Cl)c(C(=O)OCc3ccccc3)n2)c1Cl`
Marked response: 107 to 108 °C

Exam item: Identify melting point associated with the compound `COc1ccc(S(=O)(=O)N2CCC[C@H]2C(=O)NO)cc1`
Marked response: 164 to 166 °C

Exam item: Identify melting point associated with the compound `CCOC(=O)C(N)=NOC(=O)c1cnccc1C(F)(F)F`
Marked response: 172 to 174 °C

Exam item: Identify melting point associated with the compound `CC(C)C[C@@H](O)CC(=O)O`
Marked response: 86 °C

---

Endpoint: melting point

Some solved entries appear below for comparison.
Compound	melting point
CCCCSc1ccccc1C(=O)O	96 to 101 °C
CCOC(=O)c1cnc2ccnn2c1Cl	93 to 95 °C
O=c1[nH]nc(-c2ccc(C(F)(F)F)cc2)o1	214 to 216 °C
O=C(Nc1ccccc1)c1ccc2c(c1)N(C1CC1)CNS2(=O)=O	232 to 234 °C
Nc1nc(Cl)cc(Oc2ccc3c(c2)CCCCN3C(=O)Nc2cccc(C(F)(F)F)c2)n1	175 °C

Exam item: Identify melting point associated with the compound `CCOC(=O)C1(Cc2ccc(OC)cc2)CCCC1`
Marked response: 63.5 to 64.5 °C

Exam item: Identify melting point associated with the compound `CCOC(=O)c1cnc2nn(C)cc2c1OC(C)C`
Marked response: 107 to 109 °C

Exam item: Identify melting point associated with the compound Cc1ccccc1NC(=O)Nc1ccc(CC(=O)N2CCN(C(C)C(=O)O)C(=O)C2Cc2ccccc2)cc1 (stereo unspecified)
Marked response: 103 to 105 °C

Exam item: Identify melting point associated with the compound `N[C@@H](CO)C(=O)Nn1cccc1`
Marked response: 135 to 137 °C

Exam item: Identify melting point associated with the compound `O=C1c2ccccc2OCN1CCO`
Marked response: 59 to 61 °C

Exam item: Identify melting point associated with the compound `CCOP(=O)(OCC)Oc1c(C2CCN(CCCCNC(=O)c3ccc(-c4ccc(C#N)cc4)cc3)CC2)ccc2c1CCCC2`
Marked response: 90 °C

Exam item: Identify melting point associated with the compound `O=C(O)c1ccc(NCCOc2ccc(F)cc2)cc1`
Marked response: 209 to 210 °C

Hello, the source for this data is a melting point compilation (Tetko et al.; mined from patent text by program, amines drawn as free bases though some values may be those of a salt), in case you need it.
